- method description: changes in parasitized red cell lysis, either direction – P. falciparum Indochina, OD700, 3 h, PSAC antagonist project, primary screen (AID 1156)
- conditions used: P. falciparum-infected erythrocytes, osmotic lysis, higher = more signal, called active from +8 up or from −8 down
Answer each item with its documented z-score.
Give bare numbers.

Known z-score results, listed for orientation:
COCCOC(=O)N1C(=O)[C@@]2(c3cc(C#CCC(C(=O)OC)C(=O)OC)ccc31)[C@H](c1ccc(OCCO)cc1)N1[C@H](c3ccccc3)[C@H](c3ccccc3)OC(=O)[C@H]1[C@@H]2C(N)=O = 0.478
COC(=O)C(CC#Cc1ccc2c(c1)[C@]1(C(=O)N2)[C@H](C(=O)N2CCc3cc(OC)c(OC)cc3C2)[C@H]2C(=O)O[C@H](c3ccccc3)[C@H](c3ccccc3)N2[C@@H]1c1ccc(O)cc1)C(=O)OC = 1.93
[N-]=[N+]=NCc1ccccc1[C@H]1OC(c2ccc(OCCCO)cc2)=N[C@@]1(Cc1ccccc1N=[N+]=[N-])C(=O)NCCN1CCOCC1 = 1.7
CC(C)(C)OC(=O)CC[C@@]1(C(=O)N2CCCCC2)N=C(c2ccc(OCCCO)cc2)O[C@@H]1c1ccccc1N=[N+]=[N-] = 2.26
COC(=O)[C@@]1(Cc2ccccc2)[C@H]2c3cc(C(=O)N4CCCC4)n(Cc4ccc(OC(F)(F)F)cc4)c3C[C@H]2CN1C(=O)c1ccccc1 = 1.01
C[N+](C)(C)CCCCNC(=O)[C@H]1C[C@H]2C(=O)NCC(=O)N2[C@H]1c1ccc(O)cc1 = -0.393

Give one value of z-score per listed compound.
1. NC(=O)[C@H]1[C@@H]2C(=O)O[C@@H](c3ccccc3)[C@@H](c3ccccc3)N2[C@@H](c2ccc(O)cc2)[C@]12C(=O)Nc1ccc(C#CC3(O)CCCCCC3)cc12
2. C=CCOC(=O)[C@@H]1[C@H]2C(=O)O[C@H](c3ccccc3)[C@H](c3ccccc3)N2[C@H](c2ccc(OCCOC(=O)[C@@H]3C[C@@H]4C(=O)N5CCC[C@H]5C(=O)N4[C@@H]3c3cccc(OCCO)c3)cc2)[C@@]12C(=O)Nc1ccc(I)cc12
3. CCCC=C(CCC)[C@@H](NS(=O)(=O)c1ccccc1)c1ccc(C(F)(F)F)cc1
4. CC(C)C[C@@H]1NC(=O)[C@@H]2C[C@H](C(=O)NCc3ccc(F)cc3)[C@H](c3ccc(O)cc3)N2C1=O
5. CC(=O)NCCCC[C@@H]1NC(=O)[C@@H]2C[C@H](C(=O)NCCCC[N+](C)(C)C)[C@H](c3cccc(OCCO)c3)N2C1=O
6. [N-]=[N+]=Nc1ccccc1C[C@]1(C(=O)NCCN2CCOCC2)N=C(c2ccc(OCCCO)cc2)O[C@H]1c1ccccc1N=[N+]=[N-]

## Output
0.67
3.63
0.482
-1.64
-0.122
1.35

* * *

- method description: budding yeast growth modifiers under rapamycin – strain BY4716, OD600, 96 h, primary screen (AID 1091); further: test concentration not given here
- conditions used: S. cerevisiae BY4716 + rapamycin, higher = more signal, called active from +8 up or from −8 down
Decide using z-score: a value greater than or equal to -0.3 is true (1), a smaller one is false (0).

Illustrative cases are given below, each with its answer.
CC(C)[Si](C#C[Si](C(C)C)(C(C)C)C(C)C)(O[C@H](C)c1cn(Cc2cccc(Cl)c2)nn1)C(C)C = false (0)
COCCOC(=O)N1C(=O)[C@@]2(c3cc(C#Cc4ccc(OC)cc4)ccc31)[C@H](c1ccc(OCCO)cc1)N1[C@H](c3ccccc3)[C@H](c3ccccc3)OC(=O)[C@H]1[C@@H]2C(N)=O = true (1)
COC(=O)c1ccc(OC)c(/C=C\CC(CCc2ccccc2)OC(=O)c2ccncc2)c1 (configuration not stated) = true (1)
[N-]=[N+]=NCc1ccccc1C[C@]1(C(=O)NCCN2CCOCC2)N=C(c2ccc(OCCCO)cc2)O[C@H]1c1ccccc1 = false (0)
O=C1C[C@@](C(=O)NCc2ccccc2)(c2ccc([N+](=O)[O-])cc2)[C@@H](c2ccc(CO)cc2I)N1C1CCCCC1 = true (1)

## Input Tell me whether z-score is at least -0.3 here: C=C(COC)C(=O)CC[C@H](OC(=O)c1ccccc1-c1ccccc1C(=O)O)c1ccc(OCCO)cc1
## Output false (0)

## Input hey, is z-score for this one >= -0.3? C/C=C/[C@@H](CCn1cc([C@H](O)c2ccccc2)nn1)[Si](C)(C)c1ccc(OC)cc1
## Output true (1)

* * *

- method description: JC-1 mitochondrial signal, unstimulated myeloma cells – cell-based, JC-1 fluorescence, RPMI8226, 24 h, 100 nL compound, profiling panel (AID 1169); further: test concentration not given here
- conditions used: JC-1 mitochondrial potential fluorescence, higher = more signal
measured property: z-score
Answers are plain numbers.

COC(=O)C(CC#Cc1ccc2c(c1)[C@]1(C(=O)N2)[C@H](c2ccc(O)cc2)N2[C@H](c3ccccc3)[C@H](c3ccccc3)OC(=O)[C@H]2[C@@H]1C(N)=O)C(=O)OC = -0.846
COc1ccc([Si](C)(C)[C@@H]2[C@@H](CCO)O[C@]3(C(=O)N(Cc4cccc(N5C(=O)COc6ccccc65)c4)c4ccccc43)[C@H]2C)cc1 = -1.09
COc1ccc(C(=O)Nc2ccc3c(c2)[C@]2(O[C@@H](CCO)[C@H]([Si](C)(C)c4ccc(OC)cc4)[C@H]2C)C(=O)N3Cc2ccccc2)cc1 = -0.965
COc1ccc([Si](C)(C)[C@@H]2[C@@H](CC(=O)N(CCO)Cc3ccccc3)O[C@]3(C(=O)N(C)c4c(Br)cc(C)cc43)[C@H]2C)cc1 = -1.17
[N-]=[N+]=NCc1ccccc1C[C@@]1(C(=O)NCCN2CCOCC2)N=C(c2ccc(OCCCO)cc2)O[C@@H]1c1ccccc1CN=[N+]=[N-] = -1.06
O=C1O[C@@H](c2ccccc2)[C@@H](c2ccccc2)N2[C@@H](c3ccc(O)cc3)[C@]3(C(=O)Nc4ccc(C#CC5(O)CCCCCC5)cc43)[C@@H](C(=O)N3CCN(c4ncccn4)CC3)[C@H]12 = -1.05
NC(=O)NCC#Cc1ccc2c(c1)[C@]1(C(=O)N2)[C@H](c2ccc(OCCO)cc2)N2[C@H](c3ccccc3)[C@H](c3ccccc3)OC(=O)[C@H]2[C@@H]1C(=O)N1CCCCCCC1 = -0.638
COC(=O)[C@@]1(Cc2ccccc2)[C@H]2c3cc(C(=O)N4CCCC4)n(CCO)c3C[C@H]2CN1C(=O)c1ccccc1 = 0.0245

For each entry beneath this line, provide reported z-score.
1. NC(=O)NCC#Cc1ccc2c(c1)[C@]1(C(=O)N2)[C@H](c2ccc(O)cc2)N2[C@H](c3ccccc3)[C@H](c3ccccc3)OC(=O)[C@H]2[C@@H]1C(=O)NC[C@H](O)c1ccccc1
2. C[C@]12C(=O)N(CCCCCO)[C@@H]3C(=O)N(c4ccc(Cl)cc4)CC=CC31O[C@@H]1/C=C\CCCOC(=O)C12 (stereo partly drawn)
3. O=C(C=C(CC(O)c1cccc(Cl)c1)OCCF)OCCF (stereo not drawn)
4. C=CCOc1ccc([C@@H]2CC=C(C(=O)OCC)[C@H](c3cccc(Br)c3)N2S(=O)(=O)c2ccc(C)cc2)cc1
5. COC(=O)[C@]1(Cc2ccccc2CN=[N+]=[N-])N=C(c2ccc(OCCCO)cc2)O[C@@H]1c1ccccc1CN=[N+]=[N-]

## Output
[-0.888, 0.109, 0.0309, -0.957, -1.07]

* * *

- method description: growth of efflux-deficient E. coli DRC39 – strain DRC39, OD650, 24 h, E. coli filamentation inducers, primary screen (AID 1178);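 further: growth measured as culture turbidity by optical density at 650 nm; test concentration not given here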
- conditions used: E. coli DRC39 acrAB, higher = more signal, called active from +8 up or from −8 down
Could you please classify the records by z-score using these ranges: bucket A = under -0.2, bucket B = from -0.2 up to 0.7, bucket C = 0.7 and over

# count of solved cases: 8
C=CCN1C(=O)[C@@]2(O[C@@H](CCn3cc([C@H](O)c4ccccc4)nn3)[C@H]([Si](C)(C)c3ccc(OC)cc3)[C@H]2C)c2cc(NC(=O)c3ccc(OC)cc3)ccc21 = bucket B
CC(C)(C)OC(=O)CC[C@]1(C(=O)N2CCCCC2)N=C(c2ccc(OCCCO)cc2)O[C@H]1c1ccccc1CN=[N+]=[N-] = bucket C
CC(C)=CCCC(C)=CC(O)C1C=CC2C(=O)N(c3ccccc3)C(=O)C2N1Nc1ccc([N+](=O)[O-])cc1 (centres undefined) = bucket A
CN1C(=O)C2C=CC(C(O)COCc3ccccc3)N(Nc3ccccc3)C2C1=O (centres undefined) = bucket A
COC(=O)[C@@]1(Cc2ccc(F)cc2)[C@H]2c3cc(C(=O)N(C)C)n(CCSCCO)c3C[C@H]2CN1C(=O)c1ccccc1 = bucket A
O=C(Nc1cc(Br)ccc1C(=O)NCc1cccc(O)c1)c1ccccc1 = bucket C
C=C(COC)C(=O)CC[C@H](OC(=O)c1ccccc1-c1ccccc1C(=O)O)c1ccc(CO)o1 = bucket A
COC(=O)[C@@]1(Cc2ccc(OC)cc2)[C@H]2c3cc(C(=O)N(C)C)n(Cc4cc(F)c(F)c(F)c4)c3C[C@H]2CN1C(=O)c1ccccc1 = bucket A

## Input Entry C=CCNC(=O)[C@H]1[C@@H]2C(=O)O[C@@H](c3ccccc3)[C@@H](c3ccccc3)N2[C@@H](c2ccc(O)cc2)[C@]12C(=O)N(C(=O)OCCOC)c1ccc(C#CC3(O)CCCCCC3)cc12 belongs to which category?
## Output bucket B

## Input Class? Entry: CCCNC(=O)[C@@H]1c2ccccc2C(=O)N(CC23CC4CC(CC(C4)C2)C3)[C@H]1c1ccc(CO)cc1
## Output bucket B

## Input Category of C=C(C)[C@@H]1CC=C(C(O)C2C=CC3C(=O)N(C4CCCCC4)C(=O)C3N2Nc2ccc(OC)cc2)CC1 (some centres undefined) :
## Output bucket A

## Input Bin? O=C(C=C(CC(O)c1cccc(Cl)c1)OCCF)OCCF (centres undefined)
## Output bucket B

## Input Just checking, what class would you give COc1ccc([Si](C)(C)[C@@H]2[C@@H](CCO)O[C@]3(C(=O)N(Cc4ccccc4)c4ccc(N5CCCCC5=O)cc43)[C@H]2C)cc1 here?
## Output bucket A

## Input Hi, small favor: classify CN(C)C(=O)[C@@]1(CCS(=O)(=O)c2ccccc2)N=C(c2ccc(OCCCO)cc2)O[C@H]1c1ccccc1CN=[N+]=[N-] by its z-score when you get a moment.
## Output bucket C

## Input Which band does O=C1CSC(c2cccc([N+](=O)[O-])c2)N1c1ccccc1 (centres undefined) fall in?
## Output bucket C

## Input State the band of COC(=O)[C@H]1N=C(c2ccc(OCCCO)cc2)O[C@H]1c1ccccc1CN=[N+]=[N-]
## Output bucket B

## Input Assign a bin to O=C1C[C@@](C(=O)O)(c2ccc([N+](=O)[O-])cc2)[C@@H](c2ccc(CO)cc2)N1CC12CC3CC(CC(C3)C1)C2
## Output bucket B

## Input // return the class label for C=C(CCCC)/C(=C/C[C@H](OC(=O)c1ccncc1)c1ccc(CO)o1)c1cc(C(=O)OC)ccc1OC
## Output bucket A

## Input Which class holds O=C(CS)NCCCCCNC(=O)[C@@H]1C[C@@H]2C(=O)N3CCC[C@H]3C(=O)N2[C@@H]1c1ccc(O)cc1 ?
## Output bucket A

## Input // bin(item) where item = CC(C)CN1C(=O)[C@@]2(Cc3ccccc31)c1ccccc1C(=O)N(Cc1ccccc1)[C@H]2c1ccc(CO)cc1
## Output bucket B

## Input Which z-score band matches COc1ccc(C(=O)Nc2ccc3c(c2)[C@]2(O[C@@H](CCO)[C@H]([Si](C)(C)c4ccc(OC)cc4)[C@H]2C)C(=O)N3Cc2ccccc2)cc1 ?
## Output bucket C

## Input Bin? [N-]=[N+]=Nc1ccccc1[C@H]1OC(c2ccc(OCCCO)cc2)=N[C@@]1(Cc1ccccc1)C(=O)NCc1ccccc1
## Output bucket C

## Input State the band of COCCOC(=O)N1C(=O)[C@@]2(c3cc(C#CC4(O)CCCCCC4)ccc31)[C@H](C(=O)N1CCN(c3ncccn3)CC1)[C@H]1C(=O)O[C@H](c3ccccc3)[C@H](c3ccccc3)N1[C@@H]2c1ccc(O)cc1
## Output bucket B

## Input Which class is correct for the following compound? CO[C@H]1O[C@H](CO)[C@@H](OC(=O)c2ccc(Br)cc2)[C@@H]2OC(=O)[C@H](Cc3cccc(Br)c3)C/C=C/C[C@@H](Cc3cccc(Br)c3)C(=O)O[C@@H]12
## Output bucket B

## Input # bin label for COC(=O)C(CC#Cc1ccc2c(c1)[C@]1(C(=O)N2)[C@H](c2ccc(O)cc2)N2[C@H](c3ccccc3)[C@H](c3ccccc3)OC(=O)[C@H]2[C@@H]1C(=O)O)C(=O)OC
## Output bucket B

## Input Category of CC1C=C(CCCO)C=C(C(=O)OCCS(C)(=O)=O)C(C(=O)OCCS(C)(=O)=O)=CN1Cc1cccc(OC(F)(F)F)c1 (centres undefined) :
## Output bucket C

## Input For this compound, which bin applies? O=C1N(CCS(=O)(=O)c2ccccc2)Cc2ccccc2C[C@@]12COC(c1ccc(OCCCO)cc1)=N2
## Output bucket C
